System: MCF7
METHOD_NOTES: Growth inhibition of human MCF7 cells by sulforhodamine B assay
Assay type: functional
MEASURED_ATTRIBUTE: GI50 (µM)
Hi! Could you send only the number? It should be in µM, unit omitted.

Worked cases, GI50 given:
The molecule CCCCCCCCCCCC[C@@H](O)[C@H]1CC[C@H]([C@H](O)CCCCCCCCCC[C@@H](O)CC2=C[C@H](C)OC2=O)O1 [MURISOLIN] showed GI50 equal to 3.9

Summary for this molecule, CCCCCCCCCCCC[C@@H](O)[C@H]1CC[C@H]([C@H](O)CCCCCCCCCCCCC2=C[C@H](C)OC2=O)O1 [REL-SOLAMIN] : GI50 is 71

Record summary for CCCCCCCCCCCC[C@@H](O)[C@H]1CC[C@H]([C@H](O)CCCCCCCCCC[C@@H](F)CC2=C[C@H](C)OC2=O)O1 : reported GI50 = 56

# evaluate next
For reference, reported GI50 for CCCCCCCCCCCC[C@@H](O)[C@H]1CC[C@H]([C@H](O)CCCCCCCCCC[C@H](F)CC2=C[C@H](C)OC2=O)O1 stands at 37
